The entries below are paired with their reported Kd.
Target: T1, human VIP (human)
T1 construct: also called Vasoactive Intestinal Peptide
T1 peptide: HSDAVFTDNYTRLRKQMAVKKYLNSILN
Assay: SPR, Ab immobilised
The reply should be a number in mM, with the unit left off.

BINDER	UNIT_ANNOTATION	Kd
anti-PACAP antibody Ab5.H (antibody, human IgG1, kappa, N297A, V domains shown, humanized form of Ab5, full length) VH: EVQLVESGGGLVQPGGSLRLSCAASGFSLSSYAMIWVRQAPGKGLEWVGIIYDNGDTYYASSAKGRFTISRDNSKNTVYLQMNSLRAEDTAVYFCAREPGSTTQNDLWGQGTLVTVSS VL: DVQMTQSPSTLSASVGDRVTITCQASENIYNSLLWYQQKPGKAPKLLIYRASTLASGVPSRFSGSGSGTEFTLTISSLQPDDFATYYCQNYYNIWTNGAAFGGGTKVEIKR	mM	100

Alright, here's another binder for you.
If you can, please state the reported Kd value of anti-PACAP antibody Ab18 (antibody, human IgG1, kappa, N297A, V domains shown, full-length rabbit/human chimeric antibody) VH: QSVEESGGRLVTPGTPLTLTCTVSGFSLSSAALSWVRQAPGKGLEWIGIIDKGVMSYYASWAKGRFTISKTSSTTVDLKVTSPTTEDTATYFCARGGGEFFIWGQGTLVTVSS VL: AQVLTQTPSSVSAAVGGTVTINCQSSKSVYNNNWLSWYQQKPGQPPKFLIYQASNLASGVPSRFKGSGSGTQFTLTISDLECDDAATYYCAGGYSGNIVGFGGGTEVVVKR . 0.0004
